# Tested on: DU-145 prostate
# protocol_notes: NCI tumour cell line growth inhibition, 48 h
endpoint_name: TGI

Prompt: Consider the compound CCCCCCCCCC1(N=[N+]=[N-])C(=O)c2ccccc2N(C)C1=O (stereo unspecified) and give its measured TGI.
Response: > 100 µM

Prompt: Fill in the blank: the reported TGI of COc1ccc(-n2cc(-c3cc(OC)c(OC)c(OC)c3)c(C(=O)C(F)(F)F)c2C)cc1 is ____.
Response: > 100 µM

Prompt: Which TGI value is on record for CS(=O)(=O)Nc1ccc2c(c1)oc(=O)c1ccccc12 ?
Response: > 100 µM

Prompt: Give its TGI value. Item: Cn1cc(CO)c2c1C(=O)C=C(N1CC1)C2=O
Response: 0.131 µM

Prompt: Can you share its TGI? I mean this compound: Cc1cc(C)n(C(=C(C(Cl)=C(Cl)Cl)[N+](=O)[O-])n2nc(C)cc2C)n1
Response: 14.9 µM

Prompt: Record request: TGI value, item Nc1ccc(-c2nc3cc(F)ccc3s2)cc1Cl
Response: > 100 µM

Prompt: Give the measured TGI of C=COCCCOc1ccccc1 .
Response: > 100 µM

Prompt: Form field: reported TGI of CCN(CC)c1ccc2c(c1)OC(N)=C(C#N)C2c1cc(OC)c2c(c1)OCO2 (stereo unspecified)
Response: 0.428 µM

Prompt: Fill in: TGI of Cc1cc2c(cc1Cl)SC(NS(=O)(=O)c1ccc(Cl)cc1)=NS2(=O)=O is ___
Response: > 100 µM

Prompt: Quick one: TGI for OC1(C(F)(F)F)OCCN=C1C(F)(F)F (stereo unspecified) ?
Response: > 100 µM

Prompt: Quick one: TGI of O=C1/C(=C/c2ccc(Br)cc2)COc2ccc(O)c(O)c21 ?
Response: 2.9 µM

* * *

# Tested on: SN12C renal
# protocol_notes: NCI tumour cell line growth inhibition, 48 h; in the data active means GI50 below about 0.43 µM; inactive means the rest
The reply should be one of these categories: class 1 = active, class 0 = inactive

Prompt: Hi, sorry to bother you, what did the test record for N#CC(=C1C=CC(=NO)C=C1)c1ccccc1 ?
Response: class 0

Prompt: Hi, do you know how CCCCCCNC(=O)c1cc(NCc2cc(O)ccc2O)ccc1O came out in this test?
Response: class 0

Prompt: Test call, this compound: O=C(OC(CNc1cc(=O)n(Cc2ccccc2)c(=O)n1Cc1ccccc1)CN1CCCC1)c1ccccc1 (stereo unspecified)
Response: class 0

Prompt: How did this test come out for O=C(CNc1ccc(Cl)cc1)Nc1ccc(-c2nc3ccccc3s2)cc1 ?
Response: class 0

Prompt: Outcome logged for COc1cc(C2CC(c3cccc(Br)c3)=NN2C(C)=O)cc(OC)c1OC (stereo unspecified) in this assay:
Response: class 0

Prompt: Each compound tested received a call. Report the one for N#Cc1c(NN)n(C2OC(CO)C(O)C2O)c2ncnc(N)c12 (stereo unspecified) .
Response: class 1

Prompt: Lab log entry: CN(C)CCCNC(=O)c1cc2[nH]c3c(cnc4ccc([N+](=O)[O-])cc43)c(=O)c2n1C — outcome as called in the assay?
Response: class 0

Prompt: Test call, this compound: CCC[CH2][Sn]1([CH2]CCC)[O]N=C(c2ccccc2)C(c2ccccc2)[O]1 (stereo unspecified)
Response: class 0

Prompt: Give the logged outcome of this assay for the following compound: Cn1cc(CO)c2c1C(=O)C=C(N1CC1)C2=O
Response: class 1

Prompt: Hi, sorry to bother you, what did the test record for CCn1c(-c2nonc2N)nc2c(C#CC(C)(C)O)nc(OC[C@H](N)c3ccccc3)cc21 ?
Response: class 0

Prompt: # lookup: test call for O=C(Nc1nc2ccc(C(F)(F)F)cc2s1)c1cc(Cl)ccc1O
Response: class 1

* * *

# Test system: SN12C renal
# protocol_notes: NCI tumour cell line growth inhibition, 48 h
endpoint_name: TGI (µM)
Report only the number, with the unit µM understood.

Prompt: Item: Cc1cc([N+](=O)[O-])ccc1Nc1cccc(Cl)c1C Test system: SN12C renal Read-out: TGI Value: ?
Response: 32.1

Prompt: Form: Entry = CC(C)=CC/C=C(/C)[C@H]1CC[C@]2(C)[C@@H]1CC[C@@H]1[C@@]3(C)CCCNC(C)(C)[C@@H]3CC[C@]12C | System = SN12C renal | TGI = ____
Response: 5.45

Prompt: # get_value(readout= TGI, system= SN12C renal) for CCN(CC)CCOc1ccc(-c2nc3cc(Cl)ccc3s2)cc1
Response: 4.79

Prompt: Lab request: please report TGI under test system SN12C renal for CC(C)(Cl)C(Br)CCC(C)(Cl)C(Br)CBr (centres undefined)
Response: 54.2

* * *

# Tested on: HOP-62 NSCLC
# protocol_notes: NCI tumour cell line growth inhibition, 48 h
Exercise: for every item that follows, state its recorded log10 of TGI.
Scale type: logarithmic (base 10). Underlying TGI unit: µM.

Prompt: Record request: log10 of TGI value, item Cc1cc(CC(O)c2ccc(Cl)c(Cl)c2)nc(=O)[nH]1 (configuration not stated)
Response: 1.94

Prompt: Consider the molecule CCN(CC)CCOc1ccc(-c2nc3cc(Cl)ccc3s2)cc1 and give its measured log10 of TGI.
Response: 0.51

Prompt: Param item = Clc1nc2ccccc2nc1CI ; retrieve measured log10 of TGI.
Response: 1.49

Prompt: Name the reported log10 of TGI value associated with the molecule O=[N+]([O-])c1ccc(C2=Nn3cnnc3SC2)o1
Response: 1.95

Prompt: Endpoint output: log10 of TGI of Cc1ccc(NC(=O)C(=O)C(C(=O)c2ccc3ccccc3c2)C2OC(=O)c3ccccc32)cc1C (configuration not stated) . Value?
Response: 1.55

Prompt: Which value of log10 of TGI has been reported for CC(C)c1ccc2c(c1)CC[C@@H]1[C@@](C)(C(=O)O)CCC[C@]21C in the records?
Response: 1.36

Prompt: Data request, read-out log10 of TGI, for Cc1cc([N+](=O)[O-])ccc1Nc1cccc(Cl)c1C
Response: 1.45

Prompt: Which log10 of TGI is reported for this molecule? CC(C)=CC/C=C(/C)[C@H]1CC[C@]2(C)[C@@H]1CC[C@@H]1[C@@]3(C)CCCNC(C)(C)[C@@H]3CC[C@]12C
Response: 0.59

Prompt: Could you share which log10 of TGI value was measured for O=C(Cc1ccc(/C=C/C(=O)c2ncc[nH]2)cc1)Nc1cc(F)c(F)c(F)c1 ?
Response: 0.91

Prompt: Name the reported log10 of TGI value associated with the molecule C=C1CC[C@@H]2[C@](C)(COC(C)=O)[C@H](OC(C)=O)CC[C@@]2(C)[C@@H]1CC(Sc1ccccc1)C1=CCOC1=O (some centres not stated)
Response: 0.74

Prompt: Bench note: what log10 of TGI did Oc1cn(-c2ccc(Cl)cc2)nc1-c1nnc(-c2ccccc2)o1 show?
Response: 0.67

Prompt: Quick check: log10 of TGI of CC(C)CC1C(=O)NCCC(NC(=O)C(Cc2ccc(OC(C)(C)C)cc2)NC(=O)OC(C)(C)C)C(=O)NC(Cc2ccccc2)C(=O)NC(Cc2ccccc2)NC1=O (configuration not stated) ?
Response: 1.58

Prompt: Which log10 of TGI value belongs to CC(C)(C)[Si](OC1CC(n2cnc3c(N)ncnc32)OC1CO)(c1ccccc1)c1ccccc1 (configuration not stated) ?
Response: 1.66

Prompt: // returns reported log10 of TGI for input CC(C)=CCNc1ncnc2c1ncn2C1OC(CO)C(O)C1O (configuration not stated)
Response: 0.83

Prompt: Quick one: log10 of TGI for CCN1CCN(C(c2ccc(C(F)(F)F)cc2)c2ccc3cccnc3c2O)CC1 (configuration not stated) ?
Response: 1.14

Prompt: Suppose we examine the molecule Nc1ccc(-c2nc3cc(F)ccc3s2)cc1Cl ; what log10 of TGI value has been reported?
Response: 1.67

Prompt: // lookup log10 of TGI for CCOc1cc2c(OCc3ccccc3)cc3c4cc(OC)c(OC)cc4c[n+](C)c3c2cc1OC
Response: 1.29

* * *

# Test system: NCI-H522 lung
# protocol_notes: NCI tumour cell line growth inhibition, 48 h
So I've got a bunch of compounds here, and I need their GI50 values.

Prompt: Give the measured GI50 of C=C1C(=O)O[C@@H]2C[C@@H]1CC/C(C)=C/CC/C(C)=C/CC[C@@]2(C)O .
Response: 6.36 µM

Prompt: Which GI50 value belongs to O=C(Nc1nc2ccc(C(F)(F)F)cc2s1)c1cc(Cl)ccc1O ?
Response: 0.278 µM

Prompt: Find the recorded GI50 belonging to Cc1cc(I)cc(CN(C)CCCN2CCCCCCC2)c1O and report it.
Response: 19.3 µM

Prompt: State the recorded GI50 for this entry: COc1ccc(C(C)=O)cc1N1C(=O)C2C(C1=O)C1(c3ccccc3)C(=O)C2(c2ccccc2)C(c2ccc(C)cc2)=C1c1ccc(C)cc1 (stereo unspecified)
Response: > 100 µM

Prompt: Consider the compound CCCCCCCCCCCCCC1=NC(C)(C)CN1C(C)C and give its measured GI50.
Response: 1.58 µM

Prompt: Which GI50 is listed for C=C1CC[C@@H]2[C@](C)(COC(C)=O)[C@H](OC(C)=O)CC[C@@]2(C)[C@@H]1CC(Sc1ccccc1)C1=CCOC1=O (stereo partly specified) ?
Response: 1.35 µM
